Test system: B. subtilis
Protocol: Antibacterial disk zone of inhibition, B. subtilis
Assay type: cell-based, Bacillus subtilis 04555
Assay setup: Bacillus subtilis; 0.1 mg/ml; read-out: Inhibition Zone diameter
Measure: zone of inhibition at 100 µg/mL (mm)
Answer with a number only, understood to be in mm.

// known answers, use as guide
INSERT INTO measurements (compound, study_target, measure, recorded_result) VALUES
  ('CCc1nc(N)nc(N)c1N1CCN(c2ccc(C(=O)NC(CCC(=O)O)C(=O)O)cc2)CC1 (stereo not shown) [drawing 23]', 'B. subtilis', 'zone of inhibition at 100 µg/mL', 20),
  ('CCc1nc(N)nc(N)c1N1CCN(c2ccc(C(=O)O)cc2)CC1 [Example 11]', 'B. subtilis', 'zone of inhibition at 100 µg/mL', 18),
  ('CCOC(=O)CCC(NC(=O)c1ccc(N2CCN(c3c(N)nc(N)nc3CC)CC2)cc1)C(=O)OCC (stereo not shown) [drawing 22]', 'B. subtilis', 'zone of inhibition at 100 µg/mL', 19);

Field: next compound
Q) Fill in: zone of inhibition at 100 µg/mL of CC(=O)c1ccc(N2CCN(c3c(C)nc(N)nc3N)CC2)cc1 [Example 5] is ___
A) 23

---

Consider the following molecules and their measured zone of inhibition at 10 µg/mL readings.
Tested on: M. faecalis
Protocol: Antibacterial disk zone of inhibition, M. faecalis (as headed)
Assay type: cell-based, Streptococcus faecalis 05045
Assay setup: Enterococcus faecalis; 0.01 mg/ml; read-out: Inhibition Zone diameter
Answer with a number only, understood to be in mm.

INSERT INTO assay_data (molecule, recorded_result) VALUES
  ('CCCc1nc(N)nc(N)c1N1CCN(c2ccc(C(=O)O)cc2)CC1', 15),
  ('CCc1nc(N)nc(N)c1N1CCN(c2ccc(C(=O)O)cc2)CC1', 19),
  ('CCCc1nc(N)nc(N)c1N1CCN(c2ccc(C(=O)OCC)cc2)CC1', 15),
  ('Cc1nc(N)nc(N)c1N1CCN(c2ccc(S(C)(=O)=O)cc2)CC1', 18);

Field: next molecule
Q) Fill in: zone of inhibition at 10 µg/mL of CCOC(=O)CCC(NC(=O)c1ccc(N2CCN(c3c(N)nc(N)nc3CC)CC2)cc1)C(=O)OCC (centres unmarked) [drawing 22] is ___
A) 15

---

Tested on: P388 Leukemia
Protocol: In vivo lymphocytic leukemia P388 test in mice
Parameters: species or system CD2 F1 mice
Assay setup: 50 mg/kg, intraperitoneal, two single doses four days apart
Consider the following compounds and their measured T/C × 100 readings.
Answer with a number only, understood to be in %.

INSERT INTO results (compound, measure, unit_info, recorded_result) VALUES
  ('Cc1nc(N)nc(N)c1N1CCN(c2ccc(C(=O)O)cc2)CC1.Cl [Example 1]', 'T/C × 100', '%', 258),
  ('CCc1nc(N)nc(N)c1N1CCN(c2ccc(C#N)cc2)CC1 [Example 10]', 'T/C × 100', '%', 126);

Q) Fill in: T/C × 100 of CCCc1nc(N)nc(N)c1N1CCN(c2ccc(C(=O)OCC)cc2)CC1 [Example 18] is ___
A) 149

---

Test system: P388 Leukemia
Protocol: In vivo lymphocytic leukemia P388 test in mice
Design: species or system CD2 F1 mice
Assay setup: 50 mg/kg, intraperitoneal, two single doses four days apart
Measure: T/C × 100

// known answers, use as guide
INSERT INTO assay_data (molecule, measure, recorded_result) VALUES
  ('CCOC(=O)CCC(NC(=O)c1ccc(N2CCN(c3c(N)nc(N)nc3CC)CC2)cc1)C(=O)OCC (stereo not shown) [drawing 19]', 'T/C × 100', '258%'),
  ('Cc1nc(N)nc(N)c1N1CCN(c2ccc(C(=O)N[C@@H](CCC(=O)O)C(=O)O)cc2)CC1', 'T/C × 100', '222%'),
  ('Cc1nc(N)nc(N)c1N1CCN(c2ccc(S(C)(=O)=O)cc2)CC1', 'T/C × 100', '198%');

Field: next molecule
Q) Request - read-out T/C × 100 | tested on P388 Leukemia | molecule CC(=O)c1ccc(N2CCN(c3c(C)nc(N)nc3N)CC2)cc1
A) 250%
